- tgt: PI3-kinase p110-delta/p85-alpha (Homo sapiens)
- Sequence (P27986 whole entry): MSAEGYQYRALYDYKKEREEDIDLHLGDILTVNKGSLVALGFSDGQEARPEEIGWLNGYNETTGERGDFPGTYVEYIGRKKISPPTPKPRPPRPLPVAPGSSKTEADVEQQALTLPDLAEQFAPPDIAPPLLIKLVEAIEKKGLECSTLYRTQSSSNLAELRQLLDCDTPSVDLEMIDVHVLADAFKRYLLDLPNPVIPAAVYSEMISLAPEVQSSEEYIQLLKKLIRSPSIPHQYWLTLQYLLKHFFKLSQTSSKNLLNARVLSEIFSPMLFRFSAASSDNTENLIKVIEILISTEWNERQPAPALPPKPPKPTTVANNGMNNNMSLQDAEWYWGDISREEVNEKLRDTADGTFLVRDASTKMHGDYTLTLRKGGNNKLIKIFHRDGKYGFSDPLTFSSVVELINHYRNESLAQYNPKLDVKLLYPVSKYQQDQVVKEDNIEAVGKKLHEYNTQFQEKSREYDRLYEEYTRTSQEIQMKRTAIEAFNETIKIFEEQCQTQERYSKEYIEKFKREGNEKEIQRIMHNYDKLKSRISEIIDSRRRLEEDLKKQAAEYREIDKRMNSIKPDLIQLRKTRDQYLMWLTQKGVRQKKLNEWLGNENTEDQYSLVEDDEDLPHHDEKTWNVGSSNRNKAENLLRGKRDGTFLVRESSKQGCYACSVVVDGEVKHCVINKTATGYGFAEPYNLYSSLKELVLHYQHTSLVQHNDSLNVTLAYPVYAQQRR
- Sequence (O00329 whole entry): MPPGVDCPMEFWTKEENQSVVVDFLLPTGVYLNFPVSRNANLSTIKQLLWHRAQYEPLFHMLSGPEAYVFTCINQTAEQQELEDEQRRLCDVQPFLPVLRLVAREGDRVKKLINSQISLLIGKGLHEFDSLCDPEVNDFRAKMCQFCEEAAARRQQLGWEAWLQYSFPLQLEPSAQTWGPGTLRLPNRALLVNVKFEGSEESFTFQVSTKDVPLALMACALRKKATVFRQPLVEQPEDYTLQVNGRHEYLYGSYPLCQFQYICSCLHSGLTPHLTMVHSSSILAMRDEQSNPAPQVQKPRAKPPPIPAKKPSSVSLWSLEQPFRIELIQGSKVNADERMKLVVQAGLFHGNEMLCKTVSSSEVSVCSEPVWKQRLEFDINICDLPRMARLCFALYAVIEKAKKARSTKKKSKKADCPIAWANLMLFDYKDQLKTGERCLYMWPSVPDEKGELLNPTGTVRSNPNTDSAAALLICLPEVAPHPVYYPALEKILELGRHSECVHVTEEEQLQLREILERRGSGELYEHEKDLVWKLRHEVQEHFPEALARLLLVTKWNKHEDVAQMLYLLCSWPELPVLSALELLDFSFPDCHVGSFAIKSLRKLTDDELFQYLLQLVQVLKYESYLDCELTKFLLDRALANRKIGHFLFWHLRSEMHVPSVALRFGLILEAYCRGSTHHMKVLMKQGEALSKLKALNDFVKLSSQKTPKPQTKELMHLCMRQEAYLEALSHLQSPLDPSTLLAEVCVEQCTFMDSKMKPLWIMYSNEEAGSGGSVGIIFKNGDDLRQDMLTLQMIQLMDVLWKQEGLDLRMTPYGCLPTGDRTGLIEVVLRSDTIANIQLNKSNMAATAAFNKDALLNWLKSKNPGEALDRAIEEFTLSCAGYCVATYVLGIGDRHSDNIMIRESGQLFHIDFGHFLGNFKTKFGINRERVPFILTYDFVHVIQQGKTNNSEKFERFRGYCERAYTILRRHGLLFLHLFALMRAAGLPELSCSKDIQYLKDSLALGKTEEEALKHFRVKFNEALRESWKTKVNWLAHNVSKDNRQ
- assayRemarks: biochemical
- Description: Inhibition of N-terminal His6-tagged recombinant full length human p110delta/untagged recombinant full length human p85alpha expressed in baculovirus infected Sf21 insect cells using PIP2 as substrate measured after 80 mins by transcreener fluorescence polarization assay
resultType: IC50

Reported IC50, molecule N#Cc1c[nH]c2ncnc(N3CC[C@H]3c3nn4ccc(Cl)c4c(=O)n3-c3ccccc3)c12 : ____
13 nM

Reported IC50, molecule CC(=O)c1cnc(N)nc1N1CC[C@H]1c1nn2ccc(Cl)c2c(=O)n1-c1ccccc1 : ____
5 nM

###

- assayRemarks: Half life in Beagle dog at 1 mg/kg, iv by LC-MS/MS analysis
- Type: ADME, organism-based, Canis lupus familiaris
- conditions: in vivo
resultType: half-life
Write your answer as a measured quantity: the number, then the unit.

Reported half-life, compound CC(=O)c1cnc(N)nc1N1CC[C@H]1c1nn2ccc(Cl)c2c(=O)n1-c1ccccc1 : ____
6.3 h

###

- assayRemarks: AUC in Beagle dog at 1 mg/kg, iv by LC-MS/MS analysis
- Assay type: ADME, organism-based, Canis lupus familiaris
- conditions: in vivo
resultType: AUC
Write your answer as a measured quantity: the number, then the unit.

Reported AUC, compound CC(=O)c1cnc(N)nc1N1CC[C@H]1c1nn2ccc(Cl)c2c(=O)n1-c1ccccc1 : ____
3260 ng·h/mL

###

- tgt: PI3K p110 beta/p85 alpha (Homo sapiens)
- Sequence (P42338 whole entry, one chain of several): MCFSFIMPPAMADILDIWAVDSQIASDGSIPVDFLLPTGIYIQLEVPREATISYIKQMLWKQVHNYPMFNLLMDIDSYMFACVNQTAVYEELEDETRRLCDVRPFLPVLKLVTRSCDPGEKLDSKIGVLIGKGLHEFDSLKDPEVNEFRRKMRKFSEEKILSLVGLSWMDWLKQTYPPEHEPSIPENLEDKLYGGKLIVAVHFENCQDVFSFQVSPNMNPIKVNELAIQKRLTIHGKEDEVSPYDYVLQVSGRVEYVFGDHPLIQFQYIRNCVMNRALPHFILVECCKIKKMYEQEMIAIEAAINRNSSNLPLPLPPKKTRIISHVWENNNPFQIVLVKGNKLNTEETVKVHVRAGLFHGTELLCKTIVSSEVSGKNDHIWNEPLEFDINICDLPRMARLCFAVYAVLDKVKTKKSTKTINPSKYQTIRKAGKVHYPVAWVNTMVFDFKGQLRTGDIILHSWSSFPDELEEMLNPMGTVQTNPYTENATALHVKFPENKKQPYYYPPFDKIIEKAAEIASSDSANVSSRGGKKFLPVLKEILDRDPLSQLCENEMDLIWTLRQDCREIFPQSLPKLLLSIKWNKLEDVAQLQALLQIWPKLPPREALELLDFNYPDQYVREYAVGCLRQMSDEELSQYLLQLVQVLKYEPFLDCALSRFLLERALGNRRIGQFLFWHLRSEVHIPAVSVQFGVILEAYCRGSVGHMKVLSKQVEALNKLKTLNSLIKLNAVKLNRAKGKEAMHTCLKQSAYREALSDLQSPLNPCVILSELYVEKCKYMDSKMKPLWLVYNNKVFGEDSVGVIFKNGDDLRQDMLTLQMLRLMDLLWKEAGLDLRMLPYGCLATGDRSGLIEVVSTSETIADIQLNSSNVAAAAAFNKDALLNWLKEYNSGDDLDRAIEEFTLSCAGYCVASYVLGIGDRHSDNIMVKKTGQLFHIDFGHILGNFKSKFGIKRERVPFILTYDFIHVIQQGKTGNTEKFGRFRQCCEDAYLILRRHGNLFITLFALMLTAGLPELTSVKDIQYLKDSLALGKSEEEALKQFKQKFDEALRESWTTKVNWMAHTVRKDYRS
- assayRemarks: Inhibition of N-terminal His6-tagged recombinant full length human p110beta/untagged recombinant full length human p85alpha expressed in baculovirus infected Sf21 insect cells using PIP2 as substrate measured after 80 mins by transcreener fluorescence polarization assay
Answer each item with its documented pIC50.
pIC50 is defined as minus the log10 of a concentration measured in mol/L.

Reported pIC50, compound N#Cc1c[nH]c2ncnc(N3CC[C@H]3c3nn4ccc(Cl)c4c(=O)n3-c3ccccc3)c12 : ____
6.02

Reported pIC50, compound CC(=O)c1cnc(N)nc1N1CC[C@H]1c1nn2ccc(Cl)c2c(=O)n1-c1ccccc1 : ____
6.23

###

Answer each item with its documented remaining at 0.5 h, 1 µM.
- assayRemarks: Stability in human liver microsomes assessed as parent compound remaining at 1 uM measured after 30 mins in presence of NADPH generating system
Give just the number in %; leave the unit off.

Reported remaining at 0.5 h, 1 µM, compound O=c1c2c(Cl)ccn2nc([C@@H]2CCN2c2ncnc3[nH]cnc23)n1-c1ccccc1 : ____
95.4

Reported remaining at 0.5 h, 1 µM, compound O=c1c2c(Cl)ccn2nc([C@@H]2CCCN2c2ncnc3[nH]cnc23)n1-c1cccc(F)c1 : ____
64.3

Reported remaining at 0.5 h, 1 µM, compound CC(=O)c1c[nH]c2ncnc(N3C[C@@H](F)C[C@H]3c3nn4ccc(Cl)c4c(=O)n3-c3ccccc3)c12 : ____
20.1

Reported remaining at 0.5 h, 1 µM, compound O=c1c2c(Cl)ccn2nc([C@@H]2CCCN2c2ncnc3[nH]cnc23)n1-c1ccccc1 : ____
72.6

Reported remaining at 0.5 h, 1 µM, compound N#Cc1cnc(N)nc1N1CC[C@H]1c1nn2ccc(Cl)c2c(=O)n1-c1ccccc1 : ____
71.2

Reported remaining at 0.5 h, 1 µM, compound N#Cc1c[nH]c2ncnc(N3CCC[C@H]3c3nn4cccc4c(=O)n3-c3ccccc3)c12 : ____
2.8

Reported remaining at 0.5 h, 1 µM, compound CC(=O)c1c[nH]c2ncnc(N3CCC[C@H]3c3nn4ccc(Cl)c4c(=O)n3-c3cccc(F)c3)c12 : ____
11.7

Reported remaining at 0.5 h, 1 µM, compound CC(=O)c1c[nH]c2ncnc(N3CCC[C@H]3c3nn4ccc(Cl)c4c(=O)n3-c3ccccc3)c12 : ____
17.9

Reported remaining at 0.5 h, 1 µM, compound N#Cc1c[nH]c2ncnc(N3CC[C@H]3c3nn4ccc(Cl)c4c(=O)n3-c3ccccc3)c12 : ____
89.8

Reported remaining at 0.5 h, 1 µM, compound CC(=O)c1c[nH]c2ncnc(N3CCC[C@H]3c3nn4ccc(F)c4c(=O)n3-c3ccccc3)c12 : ____
25.1

Reported remaining at 0.5 h, 1 µM, compound CC(=O)c1c[nH]c2ncnc(N3CC[C@H]3c3nn4ccc(Cl)c4c(=O)n3-c3ccccc3)c12 : ____
83
